target: human, KCNT1 (Homo sapiens (Human), UniProt Q5JUK3); experiment: FLIPR Tl/K Flux Assay; settings: HEK293 cells stably expressing human KCNT1; Tl+ flux stimulated with EC80 of agonist Loxapine
Sequence (Q5JUK3 whole entry): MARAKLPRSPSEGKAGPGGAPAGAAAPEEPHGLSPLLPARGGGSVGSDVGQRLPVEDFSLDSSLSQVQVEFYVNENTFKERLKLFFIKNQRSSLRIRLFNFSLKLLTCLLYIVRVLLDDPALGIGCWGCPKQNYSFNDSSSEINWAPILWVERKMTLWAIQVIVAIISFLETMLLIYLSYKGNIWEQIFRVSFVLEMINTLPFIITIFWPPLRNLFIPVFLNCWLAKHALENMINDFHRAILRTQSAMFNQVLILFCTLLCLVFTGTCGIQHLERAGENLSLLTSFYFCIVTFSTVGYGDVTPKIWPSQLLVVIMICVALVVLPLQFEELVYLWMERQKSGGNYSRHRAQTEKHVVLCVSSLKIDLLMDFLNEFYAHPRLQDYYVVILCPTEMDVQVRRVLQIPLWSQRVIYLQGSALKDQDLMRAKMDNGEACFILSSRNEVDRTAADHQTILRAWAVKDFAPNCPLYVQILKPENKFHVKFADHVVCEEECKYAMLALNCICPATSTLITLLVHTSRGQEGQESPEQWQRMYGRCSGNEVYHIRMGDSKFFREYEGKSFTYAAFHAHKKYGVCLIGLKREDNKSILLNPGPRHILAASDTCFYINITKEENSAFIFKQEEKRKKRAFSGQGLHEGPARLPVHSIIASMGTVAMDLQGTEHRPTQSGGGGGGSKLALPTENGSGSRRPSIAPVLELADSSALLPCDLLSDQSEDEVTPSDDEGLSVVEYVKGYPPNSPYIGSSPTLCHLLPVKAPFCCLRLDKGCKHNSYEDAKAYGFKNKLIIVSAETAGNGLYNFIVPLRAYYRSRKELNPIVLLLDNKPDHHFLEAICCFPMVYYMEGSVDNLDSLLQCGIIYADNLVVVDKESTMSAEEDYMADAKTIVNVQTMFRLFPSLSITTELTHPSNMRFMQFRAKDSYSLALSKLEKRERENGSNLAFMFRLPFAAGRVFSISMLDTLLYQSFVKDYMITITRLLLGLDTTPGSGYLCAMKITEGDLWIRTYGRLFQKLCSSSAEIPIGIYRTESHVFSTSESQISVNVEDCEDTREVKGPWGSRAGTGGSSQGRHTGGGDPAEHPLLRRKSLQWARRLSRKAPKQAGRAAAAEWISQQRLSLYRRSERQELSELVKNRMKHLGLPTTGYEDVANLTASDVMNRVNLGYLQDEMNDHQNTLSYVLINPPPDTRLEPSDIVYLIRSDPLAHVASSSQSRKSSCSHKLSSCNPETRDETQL
pIC50: −log10 of the molar value.
# Lookup of reported pIC50 keyed by entry

Below are worked cases with known answers.
Notebook: Cn1nc(C(F)(F)F)cc1C(=O)N[C@H]1CCCn2nc(-c3ccnc(CO)c3)cc21 [Compound I-322a] , pIC50 read as < 6.00

So for CCOc1cc(-n2cc3c(n2)CCCC[C@@H]3NC(=O)c2cc(C(F)(F)F)nn2C)ccn1 [Compound I-360a] , the logged pIC50 turned out to be > 6.60

***
pIC50 in this record for O=C(N[C@H]1CCCn2nc(-c3ccnc(C(F)(F)F)c3)cc21)c1ccnn1CC(F)F [Compound I-403a] : > 6.60

response.value for Cc1nc(C(=O)N[C@H]2CCn3nc(-c4ccnc(C(F)(F)F)c4)cc32)n(C)n1 [Compound I-221a] (field: pIC50) = > 6.60

Entry under test: COc1cc(-c2nc3n(n2)CCC[C@H]3NC(=O)c2cc(C(F)(F)F)nn2C)ccn1 [Compound I-474b] . Its pIC50 was < 6.00

The compound O=C(N[C@@H]1CCc2nn(-c3ccnc(C(F)(F)F)c3)cc21)c1cc(Cl)cc(Cl)c1 [Compound I-99b] showed pIC50 equal to 6.00 to 6.30

Looking up Cn1nc(C(F)(F)F)nc1C(=O)N[C@H]1CCn2nc(-c3cc(C(F)(F)F)ncc3F)cc21 [Compound I-548a] , I see its pIC50 listed as > 6.60
